All values here come from the NIST ThermoML archive (doi:10.1016/j.jct.2015.02.024).

RUN DESCRIPTION: activity coefficient (dimensionless); of the first substance listed, at infinite dilution; xn = mol fraction of the nth substance listed
ASSAY SETUP: 328.15 K; 101 kPa; Liquid; Chromatography; x1 = 0
What activity coefficient was measured for each of the following?
Give bare numbers.

I need activity coefficient for every entry listed below, if you could help.
1. CC(C)CO [2-methyl-1-propanol] + C[N+]1(CCCO)CCOCC1.O=S(=O)([N-]S(=O)(=O)C(F)(F)F)C(F)(F)F
2. C1CCOC1 [tetrahydrofuran] + C[N+]1(CCCO)CCOCC1.O=S(=O)([N-]S(=O)(=O)C(F)(F)F)C(F)(F)F
3. CC(C)OC(C)C [diisopropyl ether] + C[N+]1(CCCO)CCOCC1.O=S(=O)([N-]S(=O)(=O)C(F)(F)F)C(F)(F)F
4. Cc1ccccc1C [1,2-dimethylbenzene] + C[N+]1(CCCO)CCOCC1.O=S(=O)([N-]S(=O)(=O)C(F)(F)F)C(F)(F)F
5. c1ccsc1 [thiophene] + C[N+]1(CCCO)CCOCC1.O=S(=O)([N-]S(=O)(=O)C(F)(F)F)C(F)(F)F
6. CCCC(=O)OC [methyl butanoate] + C[N+]1(CCCO)CCOCC1.O=S(=O)([N-]S(=O)(=O)C(F)(F)F)C(F)(F)F
7. CCc1ccccc1 [ethylbenzene] + C[N+]1(CCCO)CCOCC1.O=S(=O)([N-]S(=O)(=O)C(F)(F)F)C(F)(F)F

Reply:
1: 3.08; 2: 1.03; 3: 17.1; 4: 5.76; 5: 1.92; 6: 2.48; 7: 7.28
